Hey, just so you know, these numbers are from PubChem BioAssay AID1259407.

Tested on: CCRIS mutagenicity, Ames/micronucleus/aberration tests
Experiment: CCRIS mutagenicity studies
Details: Test System: UDS RODENT HEPATOCYTES; Strain/Indicator: THY INCORP (NON-S-PHASE); Metabolic Activation: NONE; Method: AUTORADIOGRAPHY
Activity calls are given as the source filed them. How the calls were made is not given here.
Entry note: the call must match one of 1 for active, -1 for inactive

// param item: Nc1ccccc1 ; yields the recorded call -1

Another compound to check: O=S(=O)(O)NC1CCCCC1 -1

Another compound to check: Cc1cc([N+](=O)[O-])ccc1N -1

Another compound to check: Fc1ccc2ncccc2c1 1

Another compound to check: Fc1cccc2cccnc12 1

Another compound to check: Fc1ccnc2ccccc12 -1

Another compound to check: CCN(CC)c1ccccc1 -1

* * *

System: CCRIS mutagenicity, Ames/micronucleus/aberration tests
Experiment: CCRIS mutagenicity studies
Settings: Test System: AMES SALMONELLA TYPHIMURIUM; Strain/Indicator: TA1535; Metabolic Activation: HAMSTER, LIVER, S-9, AROCLOR 1254 (10%); Method: PREINCUBATION
Activity calls are given as the source filed them. No rule for the calls is given here.
Entry note: the call must match one of active, inactive

// param item: c1ccc2c(c1)ccc1ccccc12 ; yields the recorded call inactive

Another molecule to check: CCOP(=O)(OCC)OCC inactive

Another molecule to check: O=[N+]([O-])CCO inactive

Another molecule to check: CCCCC(C=O)CC (centres undefined) inactive

Another molecule to check: COP(=S)(OC)SCn1nnc2ccccc2c1=O inactive

Another molecule to check: Cc1ccc(Cl)cc1 inactive

Another molecule to check: c1cc(OCC2CO2)cc(OCC2CO2)c1 (centres undefined) active

Another molecule to check: O=C1OC(=O)c2c(Cl)c(Cl)c(Cl)c(Cl)c21 inactive

Another molecule to check: N#CCc1ccccc1 inactive

Another molecule to check: CCOCCOC(=O)/C=C/c1ccc(OC)cc1 inactive

Another molecule to check: O=P(OCCCl)(OCCCl)OCCCl inactive

Another molecule to check: Cc1cc(N=Nc2c(O)ccc3ccccc23)c(S(=O)(=O)O)cc1Cl inactive

Another molecule to check: Oc1cc(Cl)c(Cl)c(Cl)c1 inactive

Another molecule to check: CC(C#N)CCC#N (centres undefined) inactive

Another molecule to check: CCN inactive

Another molecule to check: CNc1ccccc1 inactive

Another molecule to check: CC(C)CCC(C)Nc1ccc(NC(C)CCC(C)C)cc1 (centres undefined) inactive

Another molecule to check: O.[Al+3].[Al+3].[Na+].[Na+].[O-2].[O-2].[O-2].[O-2].[O-2].[O-2].[Si+4] inactive

Another molecule to check: C=C(C#N)C(=O)OC inactive

Another molecule to check: CC[C@H]1CN2CCc3cc(OC)c(OC)cc3[C@@H]2C[C@@H]1C[C@H]1NCCc2cc(OC)c(OC)cc21 inactive

Another molecule to check: Cc1ccc(N)cc1O inactive

Another molecule to check: N[C@H](Cc1ccccc1)C(=O)O inactive

Another molecule to check: CC1(C)CC(N=C=O)CC(C)(CN=C=O)C1 (centres undefined) inactive

Another molecule to check: CON inactive

Another molecule to check: ClC(Br)Br inactive

Another molecule to check: O=Nc1ccc(O)cc1 inactive

Another molecule to check: CC(C)CNCC(C)C inactive

Another molecule to check: BrCC(Br)C1CCC(Br)C(Br)C1 (centres undefined) inactive

Another molecule to check: Oc1c(Br)c(Br)c(Br)c(Br)c1Br inactive

Another molecule to check: CCCNCCC inactive

Another molecule to check: CCCCCCCCOP(=O)(OCCCCCCCC)OCCCCCCCC inactive

Another molecule to check: CC(C)CN(CC(C)C)CC(C)C inactive

Another molecule to check: [Cl][Hg][Cl] inactive

Another molecule to check: CC(C)[N+](C)(CCOC(=O)C1c2ccccc2Oc2ccccc21)C(C)C inactive

Another molecule to check: FC(F)(F)c1cccc(Cl)c1 inactive

Another molecule to check: Nc1ccc(Sc2ccc(N)cc2)cc1 inactive

Another molecule to check: C1=C\CC/C=C\CC/1.C1=C\CC/C=C\CC/1.[Ni] inactive

Another molecule to check: CC1CO1 (centres undefined) active

Another molecule to check: CC(C)COC(=O)c1ccccc1N inactive

Another molecule to check: O=[N+]([O-])c1ccc(NCCO)c(OCCO)c1 inactive

Another molecule to check: COc1ccc(C(=O)/C(Br)=C\C(=O)O)cc1 active

Another molecule to check: CNCCS(=O)(=O)O inactive

Another molecule to check: Nc1ccc(NCCO)c([N+](=O)[O-])c1 inactive

Another molecule to check: B#B inactive

Another molecule to check: CCN(CC)c1cccc(O)c1 inactive

Another molecule to check: CCCCN inactive

Another molecule to check: O=Cc1ccccc1 inactive

Another molecule to check: CCCCC(CC)CNCC(CC)CCCC (centres undefined) inactive

Another molecule to check: CCCCCCCCCCCCS inactive

Another molecule to check: c1ccc(N(c2ccccc2)c2ccccc2)cc1 inactive

Another molecule to check: Oc1cccc2cccnc12 inactive

Another molecule to check: CC(Cl)(Cl)[N+](=O)[O-] inactive

Another molecule to check: CCN(C(=O)N(CC)c1ccccc1)c1ccccc1 inactive

Another molecule to check: CCCC(C)(COC(N)=O)COC(=O)NC(C)C (centres undefined) inactive

Another molecule to check: CC(=O)Nc1ccccc1N active

Another molecule to check: CCCCOCC1CO1 (centres undefined) active

Another molecule to check: F inactive

Another molecule to check: ClCC(Cl)CCl active

Another molecule to check: COC(=O)c1ccccc1C(=O)OC inactive

* * *

Test system: CCRIS mutagenicity, Ames/micronucleus/aberration tests
Assay: CCRIS mutagenicity studies
Details: Test System: AMES SALMONELLA TYPHIMURIUM; Strain/Indicator: TA98; Metabolic Activation: NONE; Method: STANDARD PLATE
Active and inactive are the calls of the source. How the calls were made is not given here.
Entry note: the call must match one of label 1 for active, label 0 for inactive

// param item: O=C(COc1cc(Cl)c(Cl)cc1Cl)N[C@@H](Cc1c[nH]c2ccccc12)C(=O)O ; yields the recorded call label 0

Another compound to check: Cc1cnc2ccc3c(nc(NO)n3C)c2n1 label 1

Another compound to check: O=[N+]([O-])c1cccc2c1c([N+](=O)[O-])cc1ccccc12 label 1

Another compound to check: N=c1c2ncn(C(c3ccccc3)(c3ccccc3)c3ccccc3)c2ncn1O label 0

Another compound to check: O=C(C(Cl)Cl)C(Cl)Cl label 1

Another compound to check: O=C(Nc1ccccc1)c1csc([N+](=O)[O-])c1 label 1

Another compound to check: CNC(=O)N(C)C(=O)NO label 0

Another compound to check: COc1ccc(C(=O)[C@@H]2O[C@@H]2c2ccccc2)cc1 label 0

Another compound to check: COc1cc2c(cc1O)CCN[C@]21CS[C@@H]2c3c(OC(C)=O)c(C)c4c(c3[C@H](COC1=O)N1[C@@H]2[C@H]2c3c(cc(C)c(OC)c3O)C[C@@H]([C@@H]1O)N2C)OCO4 label 0

Another compound to check: O=C1CN(/N=C/C=C/c2ccc([N+](=O)[O-])o2)C(=O)N1 label 1

Another compound to check: O=[N+]([O-])c1ccc2c(c1)CC=C2 label 1

Another compound to check: CC(C)NCC(O)COc1cccc2[nH]c3ccccc3c12 (stereo not drawn) label 0

Another compound to check: COc1c2occc2cc2ccc(=O)oc12 label 0

Another compound to check: CC1=C(/C=C/C(C)=C/C=C/C(C)=C/C=C/C=C(C)/C=C/C=C(C)/C=C/C2=C(C)C(=O)CCC2(C)C)C(C)(C)CCC1=O label 0

Another compound to check: CP1(C)=NP(C)(C)=NP(C)(C)=N1 label 0

Another compound to check: Cc1ccc2[nH]c3c(C)ccc(C)c3c2c1 label 0

Another compound to check: C/C=C\c1ccc(OC)cc1OC label 0

Another compound to check: O=[N+]([O-])c1cnc2c(c1)nc1ccccn12 label 1

* * *

Tested on: CCRIS mutagenicity, Ames/micronucleus/aberration tests
Assay: CCRIS mutagenicity studies
Details: Test System: AMES SALMONELLA TYPHIMURIUM; Strain/Indicator: TA1538; Metabolic Activation: RAT, LIVER, S-9, AROCLOR 1254; Method: STANDARD PLATE
Calls of active or inactive are those of the source. How the calls were made is not given here.
Entry note: the call must match one of active, inactive

// param item: Nc1ccc(O)c2c1C(=O)c1c(O)ccc(N)c1C2=O ; yields the recorded call active

Another molecule to check: CCCOc1cc(N=Nc2ccc(N(CC)CC)cc2)ccc1N=Nc1c(S(=O)(=O)O)cc2ccc(N)cc2c1O active

Another molecule to check: Cn1cnc2c1c(=O)[nH]c(=O)n2C inactive

Another molecule to check: CC(O)CN(C)c1ccc(NN)nn1 (stereo not given) active

Another molecule to check: Cc1cc(Cl)ccc1OCC(=O)O inactive

Another molecule to check: O=c1oc2cc(O)ccc2c2oc3cc(O)ccc3c12 inactive

Another molecule to check: C=CC(=O)OCC(C)(C)COC(=O)C=C inactive

Another molecule to check: O.[Al+3].[Al+3].[Na+].[Na+].[O-2].[O-2].[O-2].[O-2].[O-2].[O-2].[Si+4] inactive

Another molecule to check: Nc1ccc2c(c1)C(=O)c1ccccc1C2=O active

Another molecule to check: CN=C=O inactive

Another molecule to check: COc1cc(CNC(=O)CCCC/C=C/C(C)C)ccc1O inactive

Another molecule to check: O=C(O)/C=C\C(=O)O inactive

Another molecule to check: Nc1ccccc1 inactive

Another molecule to check: Nc1ccccc1C(F)(F)F inactive

Another molecule to check: Cc1ccc(C(C)(C)C)c(O)c1C(O)c1ncc([N+](=O)[O-])n1C (stereo not given) inactive
